molecular target: F-actin (rabbit skeletal muscle actin, ADP-actin filaments) (rabbit, UniProt P68135 1-377); experiment: co-sedimentation; dilution series of ABD mixed with an equal volume of 4 μM F-actin, 30 min at room temperature, 20 mM HEPES pH 8.0, 150 mM NaCl, 1 mM DTT; pelleted at 140,717 x g for 20 min at 4°C; Coomassie bands quantified; fit with a Hill coefficient (W859A: one site-specific binding); conditions: both partners purified
Below, each of the binders is paired with its reported Kd value.
readout kind: Kd (nM)

1) αE-catenin ABD 696–906 (domain or fragment) SKLDAEVSKWDDSGNDIIVLAKQMCMIMMEMTDFTRGKGPLKNTSDVISAAKKIAEAGSRMDKLGRTIADHCPDSACKQDLLAYLQRIALYCHQLNICSKVKAEVQNLGGELVVSGVDSAMSLIQAAKNLMNAVVQTVKASYVASTKYQKSQGMASLNLPAVSWKMKAPEKKPLVKREKQDETQTKIKRASQKKHVNPVQALSEFKAMDSI    400
2) αE-catenin ABD 692–906 (domain or fragment) QEEKSKLDAEVSKWDDSGNDIIVLAKQMCMIMMEMTDFTRGKGPLKNTSDVISAAKKIAEAGSRMDKLGRTIADHCPDSACKQDLLAYLQRIALYCHQLNICSKVKAEVQNLGGELVVSGVDSAMSLIQAAKNLMNAVVQTVKASYVASTKYQKSQGMASLNLPAVSWKMKAPEKKPLVKREKQDETQTKIKRASQKKHVNPVQALSEFKAMDSI    700
3) αE-catenin ABD 671–906 (domain or fragment) AIMAQLPQEQKAKIAEQVASFQEEKSKLDAEVSKWDDSGNDIIVLAKQMCMIMMEMTDFTRGKGPLKNTSDVISAAKKIAEAGSRMDKLGRTIADHCPDSACKQDLLAYLQRIALYCHQLNICSKVKAEVQNLGGELVVSGVDSAMSLIQAAKNLMNAVVQTVKASYVASTKYQKSQGMASLNLPAVSWKMKAPEKKPLVKREKQDETQTKIKRASQKKHVNPVQALSEFKAMDSI    2000
4) αE-catenin ABD 666–906 (full length) (domain or fragment) GQSARAIMAQLPQEQKAKIAEQVASFQEEKSKLDAEVSKWDDSGNDIIVLAKQMCMIMMEMTDFTRGKGPLKNTSDVISAAKKIAEAGSRMDKLGRTIADHCPDSACKQDLLAYLQRIALYCHQLNICSKVKAEVQNLGGELVVSGVDSAMSLIQAAKNLMNAVVQTVKASYVASTKYQKSQGMASLNLPAVSWKMKAPEKKPLVKREKQDETQTKIKRASQKKHVNPVQALSEFKAMDSI    8500
